Hello, the source for this data is PubChem BioAssay (NCI), in case you need it.

test system: SNB-75 CNS; experiment: NCI tumour cell line growth inhibition, 48 h
Where a SMILES comes first, the peptide text is derived from it. The star is where a group is joined. Boc = CC(C)(C)OC(=O)*
metric-name: TGI

{"columns": ["compound", "TGI"],
 "data": [
  ["O=C1/C(=C/c2cccs2)NC(=S)N1CN1CCOCC1", "> 100 µM"]
]}

For the 4 compounds below, give their TGI values.
1. CC1=C2C(=O)C(C)(C)C=C2C(=O)[C@](C)(O)C12CC2
2. CC(C)(C)OC(=O)NC(Cc1ccc(OCc2ccccc2)cn1)C(=O)N1CCSCC1 (stereo not given)
3. CCOCC(NC(=O)C(CC(C)C)NC(=O)OC(C)(C)C)C(N)=O (stereo not drawn) (Boc-Leu-Ser(Et)-NH2; configuration not given here)
4. O=C(O)CCSC(=O)Nc1cccc([N+](=O)[O-])c1

1. > 1 µM
2. 76.5 µM
3. > 100 µM
4. > 100 µM
